Test system: A2780 (cisplatin sensitive) ovarian cancer cell line
Assay: MTT cytotoxicity assay, A2780 ovarian cancer cells
Assay type: cell-based, human
Details: preliminary cytotoxicity data, 72 h
Method: In addition, neither the 4-aminophenanthridine precursors nor the proligands L1 or L2 themselves are effective in the absence of platinum(II). […] Following this, the media were removed carefully by aspiration and 200 μL DMSO was added into each well. […] Final results were obtained by using a microplate reader to examine the absorbance at 562 nm. […]
Measured Metric: IC50 (µM)
// return numeric value only (unit: µM, not printed)

Compound	Val
CC(=O)C=C(C)Nc1cc(C(F)(F)F)cc2c1ncc1ccccc12	7.22

Please find the next compound below.
### Prompt Which IC50 value is on record for N.N.[Cl][Pt][Cl] [cisplatin, cis-diaminedichloroplatinum(II), reference compound] ?
### Response 0.375
